# Tested on: 327498-153-R-J2-PDC complex spheroid growth, % test/control
# Measurement notes: Anticancer human tumor 327498-153-R-J2-PDC patient-derived uterine carcinosarcoma cell line growth inhibition [Asc]
# Assay setup: second compound 0.949 µM; first compound 0.0316 µM; hits give low values
Decide using viability, T/C alone. Strictly below 7%: satisfied. Equal to or above 7%: not satisfied.

Example results:
- Compound: "CCN1CCN(Cc2ccc(Nc3ncc(F)c(-c4cc(F)c5nc(C)n(C(C)C)c5c4)n3)nc2)CC1 + CCN1C(C(=O)NC23CCC(C(=O)O)(CC2)CC3)C(c2cccc(Cl)c2F)C2(C(=O)Nc3cc(Cl)ccc32)C12CCCCC2"
  Target desc: "327498-153-R-J2-PDC complex spheroid growth, % test/control"
  Class assignment: "satisfied"
- Compound: "Cn1ncnc1[C@H]1c2n[nH]c(=O)c3cc(F)cc(c23)N[C@@H]1c1ccc(F)cc1 + CCN1C(C(=O)NC23CCC(C(=O)O)(CC2)CC3)C(c2cccc(Cl)c2F)C2(C(=O)Nc3cc(Cl)ccc32)C12CCCCC2"
  Target desc: "327498-153-R-J2-PDC complex spheroid growth, % test/control"
  Class assignment: "satisfied"
- Compound: "COc1c(OCCCN2CCOCC2)ccc2c3n(c(=NC(=O)c4cnc(N)nc4)nc12)CCN3 + CCN1C(C(=O)NC23CCC(C(=O)O)(CC2)CC3)C(c2cccc(Cl)c2F)C2(C(=O)Nc3cc(Cl)ccc32)C12CCCCC2"
  Target desc: "327498-153-R-J2-PDC complex spheroid growth, % test/control"
  Class assignment: "satisfied"

For C=C(F)C(=O)N1CCN(c2nc(OCC3CCCN3C)nc3c2CCN(c2cccc4cccc(Cl)c24)C3)CC1CC#N (stereo not given) + CCN1C(C(=O)NC23CCC(C(=O)O)(CC2)CC3)C(c2cccc(Cl)c2F)C2(C(=O)Nc3cc(Cl)ccc32)C12CCCCC2 , is the recorded viability, T/C below the cut-off of 7%?
satisfied

Given the entry O=C(c1cc(Cc2n[nH]c(=O)c3ccccc23)ccc1F)N1CCN(C(=O)C2CC2)CC1 + CCN1C(C(=O)NC23CCC(C(=O)O)(CC2)CC3)C(c2cccc(Cl)c2F)C2(C(=O)Nc3cc(Cl)ccc32)C12CCCCC2 , would its reported viability, T/C be below 7%?
not satisfied

* * *

# Tested on: 327498-153-R-J2-PDC complex spheroid growth, % test/control
# Measurement notes: Anticancer human tumor 327498-153-R-J2-PDC cell line growth inhibition [Asc];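 also: spheroids exposed to compound for 7 days after 3 days of growth; 100% = DMSO vehicle control wells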
# Assay setup: second compound 0.01 µM; first compound 0.00316 µM; hits give low values
Overview of recorded viability, T/C for various molecules
Value expressed in %; do not type the unit.

Solved cases (4 shown):
- Molecule: "O=C(c1ccc(F)c(F)c1Nc1ccc(I)cc1F)N1CC(O)([C@@H]2CCCCN2)C1 + CNC(C)C(=O)NC1CN(S(=O)(=O)c2cccc(S(=O)(=O)N3CCC4CCC(C(=O)NC(c5ccccc5)c5ccccc5)N4C(=O)C(NC(=O)C(C)NC)C3)c2)CCC2CCC(C(=O)NC(c3ccccc3)c3ccccc3)N2C1=O"
  viability, T/C (%): 97.4
- Molecule: "CCN1CCN(Cc2ccc(Nc3ncc(F)c(-c4cc(F)c5nc(C)n(C(C)C)c5c4)n3)nc2)CC1 + CNC(C)C(=O)NC1CN(S(=O)(=O)c2cccc(S(=O)(=O)N3CCC4CCC(C(=O)NC(c5ccccc5)c5ccccc5)N4C(=O)C(NC(=O)C(C)NC)C3)c2)CCC2CCC(C(=O)NC(c3ccccc3)c3ccccc3)N2C1=O"
  viability, T/C (%): 102
- Molecule: "NC1CCC(NC2CC2c2ccccc2)CC1 (stereo not given) + CNC(C)C(=O)NC1CN(S(=O)(=O)c2cccc(S(=O)(=O)N3CCC4CCC(C(=O)NC(c5ccccc5)c5ccccc5)N4C(=O)C(NC(=O)C(C)NC)C3)c2)CCC2CCC(C(=O)NC(c3ccccc3)c3ccccc3)N2C1=O"
  viability, T/C (%): 92.3
- Molecule: "Cn1ncnc1[C@H]1c2n[nH]c(=O)c3cc(F)cc(c23)N[C@@H]1c1ccc(F)cc1 + CNC(C)C(=O)NC1CN(S(=O)(=O)c2cccc(S(=O)(=O)N3CCC4CCC(C(=O)NC(c5ccccc5)c5ccccc5)N4C(=O)C(NC(=O)C(C)NC)C3)c2)CCC2CCC(C(=O)NC(c3ccccc3)c3ccccc3)N2C1=O"
  viability, T/C (%): 101

GET /values?readout=viability, T/C&item= COc1c(OCCCN2CCOCC2)ccc2c3n(c(=NC(=O)c4cnc(N)nc4)nc12)CCN3 + CNC(C)C(=O)NC1CN(S(=O)(=O)c2cccc(S(=O)(=O)N3CCC4CCC(C(=O)NC(c5ccccc5)c5ccccc5)N4C(=O)C(NC(=O)C(C)NC)C3)c2)CCC2CCC(C(=O)NC(c3ccccc3)c3ccccc3)N2C1=O
93.4

* * *

Documented viability, T/C across a set of compounds
# System: 327498-153-R-J2-PDC complex spheroid growth, % test/control
# Measurement notes: Anticancer human tumor 327498-153-R-J2-PDC cell line growth inhibition [Asc];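 also: spheroids exposed to compound for 7 days after 3 days of growth; 100% = DMSO vehicle control wells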
# Assay setup: second compound 0.316 µM; first compound 3 µM; hits give low values

Observe how each entry below is paired with its result.
- Compound: "CCN1C(C(=O)NC23CCC(C(=O)O)(CC2)CC3)C(c2cccc(Cl)c2F)C2(C(=O)Nc3cc(Cl)ccc32)C12CCCCC2 (stereo not drawn) + CNC(C)C(=O)NC1CN(S(=O)(=O)c2cccc(S(=O)(=O)N3CCC4CCC(C(=O)NC(c5ccccc5)c5ccccc5)N4C(=O)C(NC(=O)C(C)NC)C3)c2)CCC2CCC(C(=O)NC(c3ccccc3)c3ccccc3)N2C1=O"
  Measurement: "5.81%"
- Compound: "CCN1C(C(=O)NC23CCC(C(=O)O)(CC2)CC3)C(c2cccc(Cl)c2F)C2(C(=O)Nc3cc(Cl)ccc32)C12CCCCC2 (stereo not drawn) + Cc1c(S(C)(=O)=O)c(-c2cc(F)cc(N3CCN(c4ccc(NS(=O)(=O)c5ccc(NC(CCN6CCC(C(=O)OCCCP(=O)(O)O)CC6)CSc6ccccc6)c(S(=O)(=O)C(F)(F)F)c5)cc4)CC3)c2)c(-c2ccc(Cl)cc2)n1C(C)C"
  Measurement: "2.1%"

# evaluate next
State the recorded viability, T/C for this entry: Cc1nc(N2CCC3(CC2)COC(C)C3N)c(CO)nc1Sc1ccnc(N)c1Cl (stereo not drawn) + CNC(C)C(=O)NC1CN(S(=O)(=O)c2cccc(S(=O)(=O)N3CCC4CCC(C(=O)NC(c5ccccc5)c5ccccc5)N4C(=O)C(NC(=O)C(C)NC)C3)c2)CCC2CCC(C(=O)NC(c3ccccc3)c3ccccc3)N2C1=O
50%

* * *

# System: 327498-153-R-J2-PDC complex spheroid growth, % test/control
# Measurement notes: Anticancer human tumor 327498-153-R-J2-PDC cell line growth inhibition [Asc];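 also: spheroids exposed to compound for 7 days after 3 days of growth; 100% = DMSO vehicle control wells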
# Assay setup: second compound 1 µM; first compound 0.1 µM; hits give low values
Collected viability, T/C values appear next to each entry.
Supply the numeric figure in %, leaving out any unit text.

Observe how each entry below is paired with its result.
- Compound: "NC1CCC(NC2CC2c2ccccc2)CC1 (stereo not given) + CNC(C)C(=O)NC1CN(S(=O)(=O)c2cccc(S(=O)(=O)N3CCC4CCC(C(=O)NC(c5ccccc5)c5ccccc5)N4C(=O)C(NC(=O)C(C)NC)C3)c2)CCC2CCC(C(=O)NC(c3ccccc3)c3ccccc3)N2C1=O"
  Endpoint unit: "%"
  viability, T/C: 97.8
- Compound: "C#Cc1c(F)ccc2cc(O)cc(-c3ncc4c(N5CC6CCC(C5)N6)nc(OCC56CCCN5CC(F)C6)nc4c3F)c12 (stereo not given) + CNC(C)C(=O)NC1CN(S(=O)(=O)c2cccc(S(=O)(=O)N3CCC4CCC(C(=O)NC(c5ccccc5)c5ccccc5)N4C(=O)C(NC(=O)C(C)NC)C3)c2)CCC2CCC(C(=O)NC(c3ccccc3)c3ccccc3)N2C1=O"
  Endpoint unit: "%"
  viability, T/C: 96.1
- Compound: "Cn1ncnc1[C@H]1c2n[nH]c(=O)c3cc(F)cc(c23)N[C@@H]1c1ccc(F)cc1 + CNC(C)C(=O)NC1CN(S(=O)(=O)c2cccc(S(=O)(=O)N3CCC4CCC(C(=O)NC(c5ccccc5)c5ccccc5)N4C(=O)C(NC(=O)C(C)NC)C3)c2)CCC2CCC(C(=O)NC(c3ccccc3)c3ccccc3)N2C1=O"
  Endpoint unit: "%"
  viability, T/C: 8.08
- Compound: "COc1c(OCCCN2CCOCC2)ccc2c3n(c(=NC(=O)c4cnc(N)nc4)nc12)CCN3 + Cc1c(S(C)(=O)=O)c(-c2cc(F)cc(N3CCN(c4ccc(NS(=O)(=O)c5ccc(NC(CCN6CCC(C(=O)OCCCP(=O)(O)O)CC6)CSc6ccccc6)c(S(=O)(=O)C(F)(F)F)c5)cc4)CC3)c2)c(-c2ccc(Cl)cc2)n1C(C)C"
  Endpoint unit: "%"
  viability, T/C: 48.7

The record that follows has no viability, T/C shown yet.
Sample O=C(c1ccc(F)c(F)c1Nc1ccc(I)cc1F)N1CC(O)([C@@H]2CCCCN2)C1 + CNC(C)C(=O)NC1CN(S(=O)(=O)c2cccc(S(=O)(=O)N3CCC4CCC(C(=O)NC(c5ccccc5)c5ccccc5)N4C(=O)C(NC(=O)C(C)NC)C3)c2)CCC2CCC(C(=O)NC(c3ccccc3)c3ccccc3)N2C1=O — what was its viability, T/C?
80.9
